All figures here come from patent US20090081758A1.

Target: PikC-RhFRED
Assay Procedure: Spectral substrate binding assay, PikC-RhFRED
Particulars: Type I difference spectra, 1 μM P450, room temperature; read-out: Kd (dissociation constant)
Attribute: pKd
Here pKd is given on a logarithmic scale as minus log10 of the concentration in mol/L.

Molecule: CC[C@H]1OC(=O)[C@H](C)[C@@H](O[C@@H]2O[C@H](C)C[C@H](N(C)C)[C@H]2O)[C@@H](C)C[C@@H](C)C(=O)/C=C/[C@H]1C [YC-17]
pKd: 4.03

Now for the molecule whose pKd we want.
Which pKd value is on record for CC[C@H]1OC(=O)[C@H](C)C(=O)[C@H](C)[C@@H](O[C@@H]2O[C@H](C)C[C@H](N(C)C)[C@H]2O)[C@@H](C)C[C@@H](C)C(=O)/C=C/[C@H]1C [narbomycin] ?
3.67

###

List of Kd tested on wt-PikC (Streptomyces venezuelae, UniProt O87605).
Sequence (O87605 whole entry): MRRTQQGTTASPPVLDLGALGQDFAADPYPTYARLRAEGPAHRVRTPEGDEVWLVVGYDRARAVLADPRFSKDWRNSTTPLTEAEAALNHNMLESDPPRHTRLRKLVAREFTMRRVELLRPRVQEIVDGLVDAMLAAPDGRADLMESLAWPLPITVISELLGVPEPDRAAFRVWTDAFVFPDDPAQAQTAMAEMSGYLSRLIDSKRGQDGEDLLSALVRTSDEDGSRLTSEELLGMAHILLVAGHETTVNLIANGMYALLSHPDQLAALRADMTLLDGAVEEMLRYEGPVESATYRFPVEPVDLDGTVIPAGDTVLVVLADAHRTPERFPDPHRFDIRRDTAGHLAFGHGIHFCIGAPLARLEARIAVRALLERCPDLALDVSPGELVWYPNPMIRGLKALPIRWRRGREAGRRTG
For clarity, give the value followed by its unit.

Molecule: CC[C@H]1OC(=O)[C@H](C)C(=O)[C@H](C)[C@@H](O[C@@H]2O[C@H](C)C[C@H](N(C)C)[C@H]2O)[C@@H](C)C[C@@H](C)C(=O)/C=C/[C@H]1C [narbomycin]
Target: wt-PikC (Streptomyces venezuelae, UniProt O87605)
Kd: 288 µM

Now for the molecule whose Kd we want.
Request body: readout Kd, system wt-PikC (Streptomyces venezuelae, UniProt O87605), query CC[C@H]1OC(=O)[C@H](C)[C@@H](O[C@@H]2O[C@H](C)C[C@H](N(C)C)[C@H]2O)[C@@H](C)C[C@@H](C)C(=O)/C=C/[C@H]1C [YC-17] . Return the value.
113 µM
